Assay: Permeability of the compound assessed as recovery at 10 uM after 5 hrs by LC-MS detection based PAMPA method
property-label: recovery

Incoming: Given C/C1=C\[C@@H](CC(C)C)NC(=O)[C@@H]2CCCN2C(=O)[C@H](CC(C)C)N(C)C(=O)C[C@@H](O)[C@@H](CC(C)C)NC(=O)[C@H](CC(C)C)N(C)C(=O)[C@H](CC(C)C)N(C)C1=O , respond with its recovery.
Outgoing: 43%

Incoming: Given C/C1=C\[C@@H](CC(C)C)NC(=O)[C@@H]2CCCN2C(=O)[C@@H](CC(C)C)N(C)C(=O)C[C@H](O)[C@H](CC(C)C)NC(=O)[C@@H](CC(C)C)N(C)C(=O)[C@@H](CC(C)C)N(C)C1=O , respond with its recovery.
Outgoing: 34%

Incoming: Given C/C1=C\[C@H](CC(C)C)NC(=O)[C@@H]2CCCN2C(=O)[C@H](CC(C)C)N(C)C(=O)C[C@@H](O)[C@@H](CC(C)C)NC(=O)[C@H](CC(C)C)N(C)C(=O)[C@H](CC(C)C)N(C)C1=O , respond with its recovery.
Outgoing: 38%

Incoming: Given C/C1=C\[C@H](CC(C)C)NC(=O)[C@@H]2CCCN2C(=O)[C@@H](CC(C)C)N(C)C(=O)C[C@H](O)[C@H](CC(C)C)NC(=O)[C@@H](CC(C)C)N(C)C(=O)[C@@H](CC(C)C)N(C)C1=O , respond with its recovery.
Outgoing: 21%

----------
For each entry below, report its Papp at 5 h, 10 µM value.
Assay: Permeability of the compound at 10 uM after 5 hrs by LC-MS detection based PAMPA method
Format: physicochemical
Details: read-out: Peff
The reply should be a number in ×10⁻⁶ cm/s, with the unit left off.

Incoming: Given C/C1=C\[C@H](CC(C)C)NC(=O)[C@@H]2CCCN2C(=O)[C@@H](CC(C)C)N(C)C(=O)C[C@H](O)[C@H](CC(C)C)NC(=O)[C@@H](CC(C)C)N(C)C(=O)[C@@H](CC(C)C)N(C)C1=O , respond with its Papp at 5 h, 10 µM.
Outgoing: 3

Incoming: Given C/C1=C\[C@H](CC(C)C)NC(=O)[C@@H]2CCCN2C(=O)[C@H](CC(C)C)N(C)C(=O)C[C@@H](O)[C@@H](CC(C)C)NC(=O)[C@H](CC(C)C)N(C)C(=O)[C@H](CC(C)C)N(C)C1=O , respond with its Papp at 5 h, 10 µM.
Outgoing: 3

Incoming: Given C/C1=C\[C@@H](CC(C)C)NC(=O)[C@@H]2CCCN2C(=O)[C@@H](CC(C)C)N(C)C(=O)C[C@H](O)[C@H](CC(C)C)NC(=O)[C@@H](CC(C)C)N(C)C(=O)[C@@H](CC(C)C)N(C)C1=O , respond with its Papp at 5 h, 10 µM.
Outgoing: 10

Incoming: Given CC(C)NCC(O)COc1cccc2ccccc12 (stereo not given) , respond with its Papp at 5 h, 10 µM.
Outgoing: 14

Incoming: Given C/C1=C\[C@@H](CC(C)C)NC(=O)[C@@H]2CCCN2C(=O)[C@H](CC(C)C)N(C)C(=O)C[C@@H](O)[C@@H](CC(C)C)NC(=O)[C@H](CC(C)C)N(C)C(=O)[C@H](CC(C)C)N(C)C1=O , respond with its Papp at 5 h, 10 µM.
Outgoing: 11
